- Test system: Calf thymus DNA
- PROTOCOL_TEXT: Displacement of ethidium bromide from calf thymus DNA
- Type: nucleic-acid assay
- TEST_SETTINGS: Bos taurus
Label scheme, based on logC50: lower (below -4), middle (-4 to below -3), upper (-3 or more)

> print(dat)
                                    compound        tested.on  label.value
 1  CN1CCN(CCC(=O)Nc2ccccc2-c2nc3ccccc3[nH]2)CC1  Calf thymus DNA        upper
 2  CC1CCN(CCC(=O)Nc2ccccc2-c2nc3ccccc3[nH]2)CC1  Calf thymus DNA        upper
 3   c1ccc2c(c1)nc(CCN1CCOCC1)n1c3ccccc3nc21  Calf thymus DNA        lower
 4    CC1CCN(CCc2nc3ccccc3c3nc4ccccc4n23)CC1  Calf thymus DNA        lower
 5     CC1CCN(Cc2nc3ccccc3c3nc4ccccc4n23)CC1  Calf thymus DNA       middle
 6  CC1CCCCN1CC(=O)Nc1ccccc1-c1nc2ccccc2[nH]1 (stereo unspecified)  Calf thymus DNA        upper
 7    c1ccc2c(c1)nc(CN1CCOCC1)n1c3ccccc3nc21  Calf thymus DNA       middle
 8    c1ccc2c(c1)nc(CN1CCCCC1)n1c3ccccc3nc21  Calf thymus DNA       middle
 9  CC1CCCCN1CCc1nc2ccccc2c2nc3ccccc3n12 (stereo unspecified)  Calf thymus DNA        lower
10    CN1CCN(CCc2nc3ccccc3c3nc4ccccc4n23)CC1  Calf thymus DNA        lower
11  CC1CCN(CC(=O)Nc2ccccc2-c2nc3ccccc3[nH]2)CC1  Calf thymus DNA        upper
12  CC1CCCCN1Cc1nc2ccccc2c2nc3ccccc3n12 (stereo unspecified)  Calf thymus DNA       middle
13  CCN(CC)CCOc1ccc2c(c1)C(=O)c1cc(OCCN(CC)CC)ccc1-2  Calf thymus DNA        lower
14  CC1CCCCN1CCC(=O)Nc1ccccc1-c1nc2ccccc2[nH]1 (stereo unspecified)  Calf thymus DNA        upper
15     CN1CCN(Cc2nc3ccccc3c3nc4ccccc4n23)CC1  Calf thymus DNA       middle
16  O=C(CCN1CCCCC1)Nc1ccccc1-c1nc2ccccc2[nH]1  Calf thymus DNA        upper
17  O=C(CN1CCOCC1)Nc1ccccc1-c1nc2ccccc2[nH]1  Calf thymus DNA        upper
18  O=C(CN1CCCCC1)Nc1ccccc1-c1nc2ccccc2[nH]1  Calf thymus DNA        upper
19  CN1CCN(CC(=O)Nc2ccccc2-c2nc3ccccc3[nH]2)CC1  Calf thymus DNA        upper
